Reference source: PubChem BioAssay (NCI)

System: HOP-92 NSCLC
Assay: NCI tumour cell line growth inhibition, 48 h
Give GI50 for every item shown.

Count: 8. Required value per item: GI50.
1. O=C1CCS/C(=N\S(=O)(=O)c2ccc(N3N=C4c5ccccc5CC4C3c3cccs3)cc2)N1C(=O)c1ccccc1 (stereo not drawn)
2. COc1ccc(N(C)c2c3ccccc3nc3[nH]c4ccccc4c23)cc1
3. COc1cc(OC)c(C(=O)/C=C/c2cccc(OC(C)=O)c2)cc1CC=C(C)C
4. C=C1C(=O)O[C@H]2[C@H]1CC/C(COC(=O)c1ccccc1)=C\CC[C@@]1(C)O[C@@H]21
5. O=C1CS/C(=N\S(=O)(=O)c2ccc(N3N=C4c5ccccc5CC4C3c3ccc(Cl)cc3)cc2)N1c1ccccc1 (stereo not drawn)
6. COc1ccc(-c2csc(NC(=O)c3cc(O)c(O)c(O)c3)n2)cc1
7. CCNCCCn1c2c(c3ccc([N+](=O)[O-])cc3c1=O)C(=O)c1cc(OC)cnc1-2
8. C1=Nc2ccccc2C=Nc2ccccc2C=Nc2ccccc2C=Nc2ccccc21.[Cl-].[Pt+2]

RESULT:
["25.4 µM", "1.07 µM", "8.52 µM", "0.984 µM", "27 µM", "5.24 µM", "0.471 µM", "19.3 µM"]

---

Tested on: LOX IMVI melanoma
Test: NCI tumour cell line growth inhibition, 48 h
value_type: TGI (µM)
Numbers only, in µM.

Field: example entries. Status: answers known.
                                chem_smiles  measure_unit  assay_result
0   Cn1cnc([N+](=O)[O-])c1Sc1nnnn1-c1ccccc1            µM          19.1
1    O=C1C(NCCN2CCOCC2)=C(Cl)C(=O)c2ncccc21            µM         0.928
2  CC(=O)Oc1ccc(/C=C/C(=O)O[C@H]2CCCC[C@@H]2OC(=O)/C=C/c2ccc(OC(C)=O)c(OC(C)=O)c2)cc1OC(C)=O            µM          15.4

Now for the molecule whose TGI we want.
QUERY: Given the entry C#CCn1c(=O)c(Cl)cn(/C(=C/C(=O)OCC)C(=O)OCC)c1=O , report its measured TGI.
RESULT: 19.9

---

System: OVCAR-5 ovarian
Experiment: NCI tumour cell line growth inhibition, 48 h
value_type: TGI

Field: example entries. Status: answers known.
>>> df
                                   compound  assay_result
0  Cc1ccc(Sc2sc(-c3ccccc3)nc2[P+](c2ccccc2)(c2ccccc2)c2ccccc2)cc1       1.45 µM
1  CCC(C(=O)c1ccccc1)C(CCCC(=O)Nc1c(C)cccc1C)N=O (centres undefined)      > 100 µM
2  CC(=O)OCC1=C(C)C[C@H]([C@@H](COC(C)=O)C2CCC3C4C[C@H]5O[C@]56CC=CC(=O)[C@]6(C)C4CC[C@@]32C)OC1=O (some centres undefined)       3.13 µM
3  COc1ccc(N(/C=C/C(=O)C(F)(F)F)CC(=O)c2ccc(Cl)c(Cl)c2)cc1       30.2 µM
4  COc1cc(/C=C2\C(=O)Nc3cccc(Cl)c32)cc(OC)c1OC      > 100 µM
5  CC(NC(=O)C(N)CC(=O)O)NC(=O)N(C)C(C)(C)C (centres undefined)      > 100 µM
6  Cc1c(N=Cc2ccc(N(CCC#N)CCC#N)cc2)c(=O)n(-c2ccccc2)n1C      > 100 µM
7  C[C@H](N)C(=O)N1C[C@H](CCCB(O)O)[C@](N)(C(=O)O)C1      > 100 µM

Now for the compound whose TGI we want.
QUERY: Given the entry CCSc1nc(N)c2c(-c3ccccc3)c3c(nc2n1)CCC3 , report its measured TGI.
RESULT: > 100 µM
